Test system: MRSA
Experiment: MIC, agar dilution, multipoint inoculator
Assay type: cell-based, methicillin-resistant Staphylococcus aureus
Settings: MRSA Isolate 3; upper value of MIC reading; in µg/mL
Structures can show the parent of a compound that is named as a salt.
metric-name: MIC

>>> recorded_result("NC(=NN=Cc1ccc(O)c(O)c1O)c1cnccn1")
256
>>> recorded_result("NC(=NN=Cc1cc([N+](=O)[O-])ccc1O)c1cnccn1")
4
>>> recorded_result("Oc1cc(O)c(C=NNc2ccccn2)c(O)c1")
256
>>> recorded_result("NC(=NN=Cc1cc([N+](=O)[O-])ccc1O)c1ccccn1")
4
>>> recorded_result("NC(=NN=Cc1cc(O)c(O)cc1O)c1cccnc1")
256
>>> recorded_result("O=Cc1cc([N+](=O)[O-])ccc1O")
2
>>> recorded_result("NC(=NN=Cc1ccc(O)c(O)c1)c1ccc2ccccc2n1")
128
>>> recorded_result("CN[C@H](CC(C)C)C(=O)N[C@H]1C(=O)N[C@@H](CC(N)=O)C(=O)N[C@H]2C(=O)N[C@H]3C(=O)N[C@H](C(=O)N[C@H](C(=O)O)c4cc(O)cc(O)c4-c4cc3ccc4O)[C@H](O)c3ccc(c(Cl)c3)Oc3cc2cc(c3O[C@@H]2O[C@H](CO)[C@@H](O)[C@H](O)[C@H]2O[C@H]2C[C@](C)(N)[C@H](O)[C@H](C)O2)Oc2ccc(cc2Cl)[C@H]1O [Vanc., Vancomycin hydrochloride, reference compound]")
0.12

====

System: MRSA
Assay: MIC, agar dilution, multipoint inoculator
Type: cell-based, methicillin-resistant Staphylococcus aureus
Settings: MRSA Isolate 4; upper value of MIC reading; in µg/mL
Description: This activity was measured using a multipoint inoculator method as follows. The MIC for each compound was measured using an agar dilution method (Onda, H., et al., Int. J. Antimicrob. Agents. 18, 263 (2001)) (Mueller Hinton agar) by means of a multipoint inoculator delivering 10^4 colony forming units per spot. ‘Staph’ refers to the reference strain of S. aureus (NCTC 6571). […]
Response field label: string, one of MET (MIC strictly below 60) or NOT MET.

>>> label("NC(=NN=Cc1cc([N+](=O)[O-])ccc1O)c1cnccn1")
"MET"
>>> label("NC(=NN=Cc1ccc(O)c(O)c1)c1ccc2ccccc2n1")
"NOT MET"
>>> label("NC(=NN=Cc1cc([N+](=O)[O-])ccc1O)c1cccnc1")
"MET"
>>> label("CN(C)c1ccc(/C=N/N=C(\\N)c2ccncc2)c2ccccc12")
"NOT MET"
>>> label("NC(=NN=Cc1cc(Br)cc([N+](=O)[O-])c1O)c1ccc2ccccc2n1")
"NOT MET"
>>> label("NC(=NN=Cc1cc(Br)cc([N+](=O)[O-])c1O)c1cccnc1")
"MET"
>>> label("NC(=NN=Cc1cc(Br)cc([N+](=O)[O-])c1O)c1ccccn1")
"MET"
>>> label("CN(C)CCCOc1ccc(C=NN=C(N)c2ccc3ccccc3n2)cc1")
"NOT MET"
>>> label("Oc1cc(O)c(C=NNc2ccccn2)c(O)c1")
"NOT MET"
>>> label("O=Cc1cc([N+](=O)[O-])ccc1O")
"MET"

====

Test system: MRSA
Test: MIC, agar dilution, multipoint inoculator
Type: cell-based, methicillin-resistant Staphylococcus aureus
Settings: Staphylococcus aureus, 18 h, MRSA Isolate 10; upper value of MIC reading; read-out: MIC
Below, each of the compounds is paired with its reported MIC value.
metric-name: MIC (µg/mL)

>>> recorded_result("CC(C)(C)c1cc(/C=N/N=C(\\N)c2ccncc2)c(O)c(C(C)(C)C)c1 [Compound 4PYcq]")
4
>>> recorded_result("CC1(C)S[C@@H]2[C@H](NC(=O)[C@H](N)c3ccccc3)C(=O)N2[C@H]1C(=O)O [Amp., Ampicillin, reference compound]")
8
>>> recorded_result("CCC(C)(C)c1ccc(/C=N/N=C(\\N)c2cccnc2)cc1 [Compound 3PYaf]")
64
>>> recorded_result("N/C(=N\\N=C\\c1ccccc1Sc1ccc(Cl)cc1)c1ccncc1 [Compound 4PYeh]")
16
>>> recorded_result("CCC(C)(C)c1ccc(/C=N/N=C(\\N)c2ccncc2)cc1 [Compound 4PYaf]")
64
>>> recorded_result("N/C(=N\\N=C\\c1c2ccccc2cc2ccccc12)c1ccncc1 [Compound 4PYam]")
32
>>> recorded_result("Cc1onc(-c2c(F)cccc2Cl)c1C(=O)N[C@@H]1C(=O)N2[C@@H]1SC(C)(C)[C@@H]2C(=O)O [Fluclox., Flucloxacillin, reference compound]")
0.25

====

Below is a list of entries, each paired with its recorded MIC value.
System: Moraxella catarrhalis
Experiment: MIC, doubling dilution in 96-well microtitre plate
Assay type: cell-based
metric-name: MIC

>>> recorded_result("CC(C)(C)c1cc(C=NN=C(N)c2cc[n+]([O-])cc2)cc(C(C)(C)C)c1")
"16 to 32 µg/mL"
>>> recorded_result("CC(C)(C)c1cccc(C=NN=C(N)c2cc[n+]([O-])cc2)c1O")
"4 to 8 µg/mL"
>>> recorded_result("CC(C)(C)c1ccc(O)c(C=NN=C(N)c2cc[n+]([O-])cc2)c1")
"8 to 16 µg/mL"
>>> recorded_result("CC(C)(C)c1cc(C=NN=C(N)c2cc[n+]([O-])cc2)c(O)c(C(C)(C)C)c1")
"32 to 64 µg/mL"
>>> recorded_result("NC(=NN=Cc1ccccc1Sc1ccc(Cl)cc1)c1cc[n+]([O-])cc1")
"64 to 128 µg/mL"
>>> recorded_result("CC(C)(C)c1ccc(C=NN=C(N)c2cc[n+]([O-])cc2)cc1")
"32 to 64 µg/mL"
>>> recorded_result("NC(=NN=Cc1cccc2ccccc12)c1cc[n+]([O-])cc1")
"16 to 32 µg/mL"
>>> recorded_result("NC(=NN=Cc1ccc([N+](=O)[O-])o1)c1cc[n+]([O-])cc1 (mixture of isomers)")
"16 to 32 µg/mL"

====

Test system: MRSA
Test: MIC, agar dilution, multipoint inoculator
Type: cell-based, methicillin-resistant Staphylococcus aureus
Conditions: MRSA Isolate 9; upper value of MIC reading; in µg/mL
Procedure: This activity was measured using a multipoint inoculator method as follows. The MIC for each compound was measured using an agar dilution method (Onda, H., et al., Int. J. Antimicrob. Agents. 18, 263 (2001)) (Mueller Hinton agar) by means of a multipoint inoculator delivering 10^4 colony forming units per spot. ‘Staph’ refers to the reference strain of S. aureus (NCTC 6571). […]
metric-name: MIC

>>> recorded_result("NC(=NN=Cc1cc([N+](=O)[O-])ccc1O)c1cccnc1")
8
>>> recorded_result("NC(=NN=Cc1cc(Br)cc([N+](=O)[O-])c1O)c1ccccn1")
64
>>> recorded_result("NC(=NN=Cc1cc(O)c(O)cc1O)c1cccnc1")
256
>>> recorded_result("NC(=NN=Cc1ccc(O)c(O)c1)c1ccc2ccccc2n1")
128
>>> recorded_result("NC(=NN=Cc1cc([N+](=O)[O-])ccc1O)c1ccccn1")
8
>>> recorded_result("NC(=NN=Cc1cc([N+](=O)[O-])ccc1O)c1cnccn1")
16
>>> recorded_result("NC(=NN=Cc1c(O)ccc2ccccc12)c1cccnc1")
256

====

System: MRSA
Assay: MIC, agar dilution, multipoint inoculator
Assay type: cell-based, methicillin-resistant Staphylococcus aureus
Conditions: panel of ten MRSA strains (clinical isolates)
metric-name: MRSA MIC range

>>> recorded_result("NC(=NN=Cc1ccc(O)c(O)c1O)c1cnccn1")
"128 to 256 mg/L"
>>> recorded_result("NC(=NN=Cc1cc(O)c(O)cc1O)c1cccnc1")
"128 to 256 mg/L"
>>> recorded_result("NC(=NN=Cc1cc(O)c(O)cc1O)c1ccncc1")
"20 to 30 mg/L"
>>> recorded_result("CC(C)(C)c1cc(C=NN=C(N)c2ccncc2)cc(C(C)(C)C)c1O")
"> 256 mg/L"
>>> recorded_result("NC(=NN=Cc1cc([N+](=O)[O-])ccc1O)c1cnccn1")
"4 to 16 mg/L"
>>> recorded_result("NC(=NN=Cc1c(O)ccc2ccccc12)c1cccnc1")
"128 to 256 mg/L"
>>> recorded_result("CCc1ccccc1C=NN=C(N)c1ccccn1")
"128 to 256 mg/L"
>>> recorded_result("NC(=NN=Cc1ccc(O)c(O)c1O)c1ccncc1")
"30 to 40 mg/L"
>>> recorded_result("NC(=NN=Cc1cc([N+](=O)[O-])ccc1O)c1ccncc1")
"20 to 30 mg/L"
>>> recorded_result("NC(=NN=Cc1cc([N+](=O)[O-])ccc1O)c1ccccn1")
"4 to 32 mg/L"

====

Each entry below lists one item and its recorded MRSA MIC range value.
Test system: MRSA
Test: MIC, agar dilution, multipoint inoculator
Assay type: cell-based, methicillin-resistant Staphylococcus aureus
Conditions: panel of ten MRSA strains (clinical isolates)
Description: This activity was measured using a multipoint inoculator method as follows. The MIC for each compound was measured using an agar dilution method (Onda, H., et al., Int. J. Antimicrob. Agents. 18, 263 (2001)) (Mueller Hinton agar) by means of a multipoint inoculator delivering 10^4 colony forming units per spot. ‘Staph’ refers to the reference strain of S. aureus (NCTC 6571). […]
metric-name: MRSA MIC range

>>> recorded_result("NC(=NN=Cc1cc(I)cc(I)c1O)c1ccncc1")
"10 to 20 µg/mL"
>>> recorded_result("COc1ccc(C=NNc2ccccn2)c(O)c1")
"20 to 30 µg/mL"
>>> recorded_result("Oc1cc(O)c(C=NNc2ccccn2)c(O)c1")
"128 to 256 µg/mL"
>>> recorded_result("CN(C)CCCOc1ccc(C=NN=C(N)c2ccc3ccccc3n2)cc1")
"32 to 128 µg/mL"
>>> recorded_result("CN(C)c1ccc(C=NN=C(N)c2ccccn2)cc1")
"128 to 256 µg/mL"
>>> recorded_result("Cc1ccccc1C=NN=C(N)c1ccccn1")
"128 to 256 µg/mL"
>>> recorded_result("CC(C)(C)[Si](C)(C)Oc1ccccc1/C=N/N=C(\\N)c1cnccn1")
"> 256 µg/mL"
>>> recorded_result("NC(=NN=Cc1cccc(Cl)c1)c1ccccn1")
"64 to 128 µg/mL"
>>> recorded_result("CCOc1ccccc1C=NN=C(N)c1cccnc1")
"> 256 µg/mL"
>>> recorded_result("NC(=NN=Cc1cc([N+](=O)[O-])ccc1O)c1cccnc1")
"2 to 8 µg/mL"
>>> recorded_result("NC(=NN=Cc1cc(Br)cc([N+](=O)[O-])c1O)c1cccnc1")
"16 to 64 µg/mL"
>>> recorded_result("Cc1cccc(C=NN=C(N)c2ccccn2)c1")
"128 to 256 µg/mL"
>>> recorded_result("O=[N+]([O-])c1cc(Br)cc(C=NNc2ccccn2)c1O")
"64 to 128 µg/mL"
>>> recorded_result("NC(=NN=Cc1c(O)ccc2ccccc12)c1ccccn1")
"> 256 µg/mL"
>>> recorded_result("NC(=NN=Cc1ccc(O)c(O)c1)c1ccc2ccccc2n1")
"64 to 128 µg/mL"
